target: RORgT (Homo sapiens, UniProt P51449); construct: Gal4 (fusion partner); expressed in transfected cells; host or cells: engineered Jurkat cells (Jurkat pEx/Gal/hRORγ CLBD/HYG pG5luc/blast); assay: RORgT Gal4 Luciferase Reporter Gene Assay; assay type: cell-based; details: RORg_GAL4 EC50 (nM), engineered Jurkat cells overexpressing RORgT (LBD or full length) with Gal4 Luc reporter; 18 hours at 37° C.; 40 μM to 0.67 nM
Sequence (P51449 267-516): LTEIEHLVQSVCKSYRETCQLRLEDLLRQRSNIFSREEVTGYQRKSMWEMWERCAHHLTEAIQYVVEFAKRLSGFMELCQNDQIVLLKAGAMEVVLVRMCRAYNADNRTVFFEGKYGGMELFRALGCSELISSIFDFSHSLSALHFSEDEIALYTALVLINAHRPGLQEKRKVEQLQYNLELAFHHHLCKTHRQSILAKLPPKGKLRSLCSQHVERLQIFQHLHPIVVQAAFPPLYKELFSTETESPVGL
assay-metric: EC50

[
  {
    "chemical-string": "CC(C)c1cc(F)cc(Oc2c(Cl)ccc(C(=O)N3CCN(S(C)(=O)=O)CC3)c2Cl)c1",
    "test-value": "105 nM"
  }
]

###

Reported pEC50 is given for each of the following molecules.
biological target: RORgT (Homo sapiens, UniProt P51449); construct: Gal4 (fusion partner); expressed in transfected cells; host or cells: engineered Jurkat cells (Jurkat pEx/Gal/hRORγ CLBD/HYG pG5luc/blast); test: RORgT Gal4 Luciferase Reporter Gene Assay; type: cell-based; details: engineered Jurkat cells overexpressing RORgT (LBD or full length) with Gal4 Luc reporter; 18 hours at 37° C.; 40 μM to 0.67 nM; read-out: RORg_GAL4 EC50
pEC50: −log10 of the molar value.

[
  {
    "chemical-string": "COc1ccc(Oc2c(Cl)cc(NC(=O)Cc3cccnc3S(C)(=O)=O)cc2Cl)cc1C(C)C",
    "assay-system": "RORgT (Homo sapiens, UniProt P51449)",
    "pEC50": 7.00
  },
  {
    "chemical-string": "COc1ncc(Oc2c(Cl)cc(NC(=O)CC3CCN(S(C)(=O)=O)CC3)cc2Cl)cc1C(C)(C)O",
    "assay-system": "RORgT (Homo sapiens, UniProt P51449)",
    "pEC50": 7.52
  },
  {
    "chemical-string": "COc1ncc(Oc2c(Cl)ccc(C(=O)NCc3ccc(S(C)(=O)=O)cc3)c2Cl)cc1C(C)(C)F",
    "assay-system": "RORgT (Homo sapiens, UniProt P51449)",
    "pEC50": 8.60
  },
  {
    "chemical-string": "COc1ccc(Oc2c(Cl)ccc(C(=O)N3CCC4(CCN(S(C)(=O)=O)CC4)C3)c2Cl)cc1C(C)C",
    "assay-system": "RORgT (Homo sapiens, UniProt P51449)",
    "pEC50": 7.46
  },
  {
    "chemical-string": "C=C(C)c1cc(Oc2c(Cl)cc(NC(=O)CC3CCN(S(C)(=O)=O)CC3)cc2Cl)cnc1OC",
    "assay-system": "RORgT (Homo sapiens, UniProt P51449)",
    "pEC50": 7.74
  },
  {
    "chemical-string": "COc1ccc(Oc2c(Cl)ccc(CNC(=O)c3ccc(S(N)(=O)=O)cc3)c2Cl)cc1C(C)C",
    "assay-system": "RORgT (Homo sapiens, UniProt P51449)",
    "pEC50": 6.86
  },
  {
    "chemical-string": "COc1ccc(Oc2c(Cl)ccc(CNS(=O)(=O)C3CCN(S(C)(=O)=O)CC3)c2Cl)cc1C(C)C",
    "assay-system": "RORgT (Homo sapiens, UniProt P51449)",
    "pEC50": 7.80
  },
  {
    "chemical-string": "COc1ccc(Oc2c(Cl)cc(NC(=O)Cc3cccnc3)cc2Cl)cc1CC(C)C",
    "assay-system": "RORgT (Homo sapiens, UniProt P51449)",
    "pEC50": 6.82
  }
]

###

biological target: RORgT (Homo sapiens); construct: Gal4 (fusion partner); expressed in transfected cells; host or cells: engineered Jurkat cells (Jurkat pEx/Gal/hRORγ CLBD/HYG pG5luc/blast); assay: RORgT Gal4 Luciferase Reporter Gene Assay; format: cell-based; settings: engineered Jurkat cells overexpressing RORgT (LBD or full length) with Gal4 Luc reporter; 18 hours at 37° C.; 40 μM to 0.67 nM; read-out: RORg_GAL4 EC50
Binned EC50; ranges: bottom (below 0.05 µM), middle (0.05 µM to below 0.2 µM), top (0.2 µM or more)

[
  {
    "compound": "C=C(C)c1cc(F)cc(Oc2c(Cl)cc(NC(=O)CC3CCN(S(C)(=O)=O)CC3)cc2Cl)c1",
    "group-label": "bottom"
  },
  {
    "compound": "COc1ccc(Oc2c(Cl)cc(NC(=O)CC3CCCN(S(=O)(=O)C4CC4)C3)cc2Cl)cc1C(C)C (stereo not shown)",
    "group-label": "middle"
  },
  {
    "compound": "CCS(=O)(=O)N1CCN(CC(=O)NCc2ccc(Cl)c(Oc3ccc(OC)c(C(C)C)c3)c2Cl)CC1",
    "group-label": "bottom"
  },
  {
    "compound": "COc1ccc(Oc2c(Cl)cc(NC(=O)Cc3ccc(N)nc3)cc2Cl)cc1C(C)C",
    "group-label": "middle"
  },
  {
    "compound": "COc1ccc(Oc2c(Cl)ccc(C(=O)NC(C)c3ccnn3C)c2Cl)cc1C(C)C (stereo not shown)",
    "group-label": "bottom"
  },
  {
    "compound": "COc1ccc(Oc2c(Cl)ccc(NC(=O)CN3CCN(S(C)(=O)=O)CC3)c2Cl)cc1C(C)C",
    "group-label": "bottom"
  },
  {
    "compound": "COc1ccc(Oc2c(Cl)ccc(C(=O)NCC3CCN(S(=O)(=O)C4CC4)CC3)c2Cl)cc1C(C)C",
    "group-label": "bottom"
  },
  {
    "compound": "COc1ccc(Oc2c(Cl)ccc(C(=O)N3CCN(S(C)(=O)=O)CC3)c2Cl)cc1C(C)C",
    "group-label": "middle"
  },
  {
    "compound": "COc1ncc(Oc2c(Cl)ccc(C(=O)N3CCC4(CC3)CN(S(C)(=O)=O)C4)c2Cl)cc1C(C)(C)F",
    "group-label": "top"
  },
  {
    "compound": "CC(C)c1cc(F)cc(Oc2c(Cl)ccc(C(=O)N3CCC4(CC3)CN(S(C)(=O)=O)C4)c2Cl)c1",
    "group-label": "bottom"
  },
  {
    "compound": "CC(C)c1cc(F)cc(Oc2c(Cl)cc(NC(=O)CC3CCN(S(N)(=O)=O)CC3)cc2Cl)c1",
    "group-label": "bottom"
  },
  {
    "compound": "COc1ccc(Oc2c(Cl)cc(NC(=O)CC3CCCN(S(C)(=O)=O)C3)cc2Cl)cc1C(C)C (racemic) [Example 41]",
    "group-label": "top"
  },
  {
    "compound": "COc1ccc(Oc2c(F)cc(NC(=O)Cc3cccnc3)cc2F)cc1C1CC1",
    "group-label": "top"
  },
  {
    "compound": "COc1ccc(Oc2c(Cl)cc(NC(=O)CCCN3CCOCC3)cc2Cl)cc1C(C)C",
    "group-label": "top"
  },
  {
    "compound": "COc1ccc(Oc2c(Cl)cc(NC(=O)Cc3cnn(C)c3)cc2Cl)cc1C(C)C",
    "group-label": "middle"
  },
  {
    "compound": "COc1ccc(Oc2c(Cl)ccc(C(=O)N3CCCC3)c2Cl)cc1C(C)C",
    "group-label": "middle"
  },
  {
    "compound": "CCS(=O)(=O)N1CCC(OCC(=O)NCc2ccc(Cl)c(Oc3ccc(OC)c(C(C)C)c3)c2Cl)CC1",
    "group-label": "top"
  },
  {
    "compound": "COc1ccc(Oc2c(Cl)cc(N3CC(CNC(C)=O)OC3=O)cc2Cl)cc1C(C)C (stereo not shown)",
    "group-label": "middle"
  },
  {
    "compound": "COc1ccc(Oc2c(Cl)cc3[nH]c(-c4ccccc4)nc3c2Cl)cc1C(C)C",
    "group-label": "top"
  },
  {
    "compound": "COc1ccc(Oc2c(Cl)ccc(CNC(=O)CN3CCN(S(C)(=O)=O)CC3)c2Cl)cc1C(C)C",
    "group-label": "middle"
  },
  {
    "compound": "CCS(=O)(=O)N1CC2(CCN(C(=O)c3ccc(Cl)c(Oc4cc(F)cc(C(C)C)c4)c3Cl)CC2)C1",
    "group-label": "middle"
  },
  {
    "compound": "C=C(C)c1cc(Oc2c(Cl)cc(NC(=O)CC3CCN(S(C)(=O)=O)CC3)cc2Cl)ccc1Cl",
    "group-label": "middle"
  },
  {
    "compound": "COc1ncc(Oc2c(Cl)ccc(CNC(=O)c3ccc(S(N)(=O)=O)cc3)c2Cl)cc1C(C)C",
    "group-label": "bottom"
  },
  {
    "compound": "CCS(=O)(=O)N1CCCC(CC(=O)Nc2cc(Cl)c(Oc3ccc(OC)c(C(C)C)c3)c(Cl)c2)C1 (stereo not shown)",
    "group-label": "middle"
  },
  {
    "compound": "COc1ccc(Oc2c(Cl)cc(NC(=O)CCC(C)C)cc2Cl)cc1C(C)C",
    "group-label": "top"
  },
  {
    "compound": "COc1ccc(Oc2c(Cl)cc(NC(=O)Cc3cccc(S(N)(=O)=O)c3)cc2Cl)cc1C(C)C",
    "group-label": "bottom"
  },
  {
    "compound": "COc1ncc(Oc2c(Cl)cc(NC(=O)CC3CCN(S(=O)(=O)C4CC4)CC3)cc2Cl)cc1C(C)C",
    "group-label": "bottom"
  },
  {
    "compound": "COc1ccc(Oc2c(Cl)cc(NC(=O)C[C@H]3CCCN(S(=O)(=O)C4CC4)C3)cc2Cl)cc1C(C)C",
    "group-label": "middle"
  },
  {
    "compound": "COc1ccc(Oc2c(Cl)ccc(C(=O)NCCCn3ccnc3)c2Cl)cc1C(C)C",
    "group-label": "top"
  },
  {
    "compound": "COc1ccc(Oc2c(Cl)ccc(C(=O)NCc3ccc(S(=O)(=O)N(C)C)nc3)c2Cl)cc1C(C)C",
    "group-label": "middle"
  }
]
